- System: multiple human cancer cell lines (acute myeloid leukemia, breast, colon, lung, pancreas, prostate, ovary)
- protocolDetails: MTT assay, multiple human cancer cell lines
- Type: cell-based
- statedConditions: range over all cell lines tested, read-out: IC50 for survival of cancer cell lines
pIC50: −log10 of the molar value.
readoutKind: pIC50

Nc1nonc1C(=O)N/N=C1\c2ccccc2-c2nc3nonc3nc21 yielded pIC50 of 5.36 to 6.40
